organism: Homo sapiens; test: Inhibition of luminol-dependent chemiluminescence induced by stimulating the neutrophil cells with FMLP (N-formyl-L-methionyl-L-leucyl-l-phenylalanine); format: functional, cell-based
The entries below come with measured IC50 values attached.
Attribute measured: IC50 (nM)

{"columns": ["Mol smiles", "Uom", "Recorded value"],
 "data": [
  ["COc1ccc(/C=C/CCCCOc2ccc3c(=O)c4cc(C(=O)O)ccc4oc3c2CCC(=O)O)cc1", "nM", 1600],
  ["CCCCCCCCCCOc1ccc2c(=O)c3cc(C(=O)O)ccc3oc2c1CCC(=O)O", "nM", 734]
]}

====

species on record: Homo sapiens; assay: Inhibition of LTB-4 induced chemotaxis of human neutrophils; type: functional

{"columns": ["Mol smiles", "IC50"],
 "data": [
  ["CCCCCCCCCCOc1ccc2c(=O)c3cc(C(=O)O)ccc3oc2c1CCC(=O)O", "7.9 µM"]
]}
